method_notes: in vitro sac permeation study, rat ileum
applied_conditions: male, Wistar, rat, Papp CTRL, SNP-untreated, 200 μM test compound
Form field: Papp at 120 min, 200 μM (one value per entry).
Write the number in ×10⁻⁶ cm/s without appending the unit.

• CC(C)NCC(O)COc1cccc2ccccc12 (stereo not drawn) [Propranolol] = 3.7
• COC1=CC(=O)C[C@@H](C)[C@]12Oc1c(Cl)c(OC)cc(OC)c1C2=O [Griseofulvin] = 24.3

Could you now consider this next molecule?
Ask: Query (molecule): CC(C(=O)O)c1ccc(-c2ccccc2)c(F)c1 (stereo not drawn) [Flurbiprofen] ; field requested: Papp at 120 min, 200 μM
Result: 33.9

* * *

method_notes: in vitro sac permeation study, rat duodenum
applied_conditions: male, Wistar, rat, Papp CTRL, SNP-untreated, 200 μM test compound
Description: Animal experimental protocols (approval codes: P18-30, P19-09, and P20-14) were carried out in accordance with the Ethical Committee of Tokyo University of Pharmacy and Life Sciences. Male Wistar rats (8 weeks old) were obtained from Tokyo Laboratory Animals Science Co., Ltd. (Tokyo, Japan). Permeation studies of lipophilic drugs were carried out using the in vitro sac method, as previously described. […]
Form field: Papp at 120 min, 200 μM (one value per entry).
Please don't drop the unit; write it after the number.

Below are worked cases with known answers.
- COC1=CC(=O)C[C@@H](C)[C@]12Oc1c(Cl)c(OC)cc(OC)c1C2=O: 8 ×10⁻⁶ cm/s
- CC(C(=O)O)c1ccc(-c2ccccc2)c(F)c1 (stereo not drawn): 5.8 ×10⁻⁶ cm/s

Ask: Query (compound): CC(C)NCC(O)COc1cccc2ccccc12 (stereo not drawn) ; field requested: Papp at 120 min, 200 μM
Result: 1.1 ×10⁻⁶ cm/s

* * *

Form field: Papp at 120 min, 200 μM (one value per entry).
method_notes: in vitro sac permeation study, rat ileum
applied_conditions: male, Wistar, rat, Papp SNP, pretreated with SNP 3 mM for 60 min, 200 μM test compound
Write the number in ×10⁻⁶ cm/s without appending the unit.

Ask: Query (molecule): CC(C)NCC(O)COc1cccc2ccccc12 (stereo not drawn) ; field requested: Papp at 120 min, 200 μM
Result: 3.9

Ask: Query (molecule): COC1=CC(=O)C[C@@H](C)[C@]12Oc1c(Cl)c(OC)cc(OC)c1C2=O ; field requested: Papp at 120 min, 200 μM
Result: 18.4

Ask: Query (molecule): CC(C(=O)O)c1ccc(-c2ccccc2)c(F)c1 (stereo not drawn) ; field requested: Papp at 120 min, 200 μM
Result: 39.8

* * *

Form field: Papp at 120 min, 200 μM (one value per entry).
method_notes: in vitro sac permeation study, rat jejunum
applied_conditions: male, Wistar, rat, Papp CTRL, SNP-untreated, 200 μM test compound
Write the number in ×10⁻⁶ cm/s without appending the unit.

* CC(C)NCC(O)COc1cccc2ccccc12 (stereo not drawn) | 4.7
* COC1=CC(=O)C[C@@H](C)[C@]12Oc1c(Cl)c(OC)cc(OC)c1C2=O | 42.2

Ask: Query (compound): CC(C(=O)O)c1ccc(-c2ccccc2)c(F)c1 (stereo not drawn) ; field requested: Papp at 120 min, 200 μM
Result: 26

* * *

method_notes: in vitro sac permeation study, rat duodenum
applied_conditions: male, Wistar, rat, Papp SNP, pretreated with SNP 3 mM for 60 min, 200 μM test compound
Form field: Papp at 120 min, 200 μM (one value per entry).

- CC(C(=O)O)c1ccc(-c2ccccc2)c(F)c1 (stereo not drawn): 13 ×10⁻⁶ cm/s
- CC(C)NCC(O)COc1cccc2ccccc12 (stereo not drawn): 1.3 ×10⁻⁶ cm/s

Could you now consider this next molecule?
Ask: Query (molecule): COC1=CC(=O)C[C@@H](C)[C@]12Oc1c(Cl)c(OC)cc(OC)c1C2=O ; field requested: Papp at 120 min, 200 μM
Result: 19.6 ×10⁻⁶ cm/s

* * *

method_notes: in vitro sac permeation study, rat colon
applied_conditions: male, Wistar, rat, Papp SNP, pretreated with SNP 3 mM for 60 min, 200 μM test compound
Form field: Papp at 120 min, 200 μM (one value per entry).
Write the number in ×10⁻⁶ cm/s without appending the unit.

Below are worked cases with known answers.
• COC1=CC(=O)C[C@@H](C)[C@]12Oc1c(Cl)c(OC)cc(OC)c1C2=O = 31.7
• CC(C(=O)O)c1ccc(-c2ccccc2)c(F)c1 (stereo not drawn) = 19.4

Could you now consider this next compound?
Ask: Query (compound): CC(C)NCC(O)COc1cccc2ccccc12 (stereo not drawn) ; field requested: Papp at 120 min, 200 μM
Result: 3.5

* * *

Form field: Papp at 120 min, 200 μM (one value per entry).
method_notes: in vitro sac permeation study, rat jejunum
applied_conditions: male, Wistar, rat, Papp SNP, pretreated with SNP 3 mM for 60 min, 200 μM test compound

Below are worked cases with known answers.
- CC(C)NCC(O)COc1cccc2ccccc12 (stereo not drawn): 4.3 ×10⁻⁶ cm/s
- CC(C(=O)O)c1ccc(-c2ccccc2)c(F)c1 (stereo not drawn): 32.7 ×10⁻⁶ cm/s

Ask: Query (molecule): COC1=CC(=O)C[C@@H](C)[C@]12Oc1c(Cl)c(OC)cc(OC)c1C2=O ; field requested: Papp at 120 min, 200 μM
Result: 70.3 ×10⁻⁶ cm/s

* * *

Form field: Papp at 120 min, 200 μM (one value per entry).
method_notes: in vitro sac permeation study, rat colon
applied_conditions: male, Wistar, rat, Papp CTRL, SNP-untreated, 200 μM test compound
Write the number in ×10⁻⁶ cm/s without appending the unit.

Below are worked cases with known answers.
• COC1=CC(=O)C[C@@H](C)[C@]12Oc1c(Cl)c(OC)cc(OC)c1C2=O = 39.6
• CC(C)NCC(O)COc1cccc2ccccc12 (stereo not drawn) = 2.1

Ask: Query (compound): CC(C(=O)O)c1ccc(-c2ccccc2)c(F)c1 (stereo not drawn) ; field requested: Papp at 120 min, 200 μM
Result: 28.3
